Target: ABCG2 (Homo sapiens, UniProt Q9UNQ0)
Sequence (Q9UNQ0 whole entry, the tested form may be a part): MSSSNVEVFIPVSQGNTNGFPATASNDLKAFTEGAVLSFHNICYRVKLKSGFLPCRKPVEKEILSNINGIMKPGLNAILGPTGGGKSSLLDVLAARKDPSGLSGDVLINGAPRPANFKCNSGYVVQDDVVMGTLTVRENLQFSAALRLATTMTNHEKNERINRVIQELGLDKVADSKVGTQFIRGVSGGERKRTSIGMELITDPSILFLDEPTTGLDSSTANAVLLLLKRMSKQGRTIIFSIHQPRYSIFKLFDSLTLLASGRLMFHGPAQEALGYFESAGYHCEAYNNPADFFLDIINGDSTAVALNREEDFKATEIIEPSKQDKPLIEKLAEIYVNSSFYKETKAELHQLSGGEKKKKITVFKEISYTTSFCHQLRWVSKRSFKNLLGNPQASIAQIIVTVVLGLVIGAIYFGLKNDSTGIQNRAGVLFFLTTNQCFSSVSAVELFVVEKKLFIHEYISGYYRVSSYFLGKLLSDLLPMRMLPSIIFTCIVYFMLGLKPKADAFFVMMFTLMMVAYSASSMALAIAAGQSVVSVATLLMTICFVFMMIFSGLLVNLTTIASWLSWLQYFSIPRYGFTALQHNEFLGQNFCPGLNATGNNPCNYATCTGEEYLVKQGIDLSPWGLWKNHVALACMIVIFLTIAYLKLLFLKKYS
Assay: Inhibition of recombinant human GFP-fused ABCG2 expressed in MDCK2 cells assessed as reduction in Hoechst 33342 efflux at […] preincubated for 30 mins followed by Hoechst 33342 addition measured immediately at 60 sec time interval for 120 mins by fluorescence assay relative to Ko143
Type: cell-based
Conditions: MDCK2 cells expressing recombinant GFP-fused human ABCG2, probe Hoechst 33342, read-out: Imax
Listing: Emax at 2 h of selected molecules
endpoint.name: Emax at 2 h

> print(dat)
                                 smiles.code                    measurement.target      result
 1  Cc1cc(Nc2ccc(O)c([N+](=O)[O-])c2)nc(-c2ccccc2)n1  ABCG2 (Homo sapiens, UniProt Q9UNQ0)  80 to 110%
 2  O=C(O)c1cccc(Nc2nc(-c3ccncc3)nc3ccccc23)c1  ABCG2 (Homo sapiens, UniProt Q9UNQ0)  80 to 110%
 3      Cc1cc(Nc2cccc(C#N)c2)nc(-c2ccccc2)n1  ABCG2 (Homo sapiens, UniProt Q9UNQ0)  80 to 110%
 4   N#Cc1cccc(Nc2nc(-c3cccnc3)nc3ccccc23)c1  ABCG2 (Homo sapiens, UniProt Q9UNQ0)  80 to 110%
 5    COc1cccc(Nc2nc(-c3ccccn3)nc3ccccc23)c1  ABCG2 (Homo sapiens, UniProt Q9UNQ0)  80 to 110%
 6   N#Cc1cccc(Nc2nc(-c3ccccn3)nc3ccccc23)c1  ABCG2 (Homo sapiens, UniProt Q9UNQ0)  80 to 110%
 7    COc1ccc(Nc2nc(-c3ccncc3)nc3ccccc23)cc1  ABCG2 (Homo sapiens, UniProt Q9UNQ0)  80 to 110%
 8  COc1ccc(Nc2nc(-c3ccccn3)nc3ccccc23)cc1OC  ABCG2 (Homo sapiens, UniProt Q9UNQ0)  80 to 110%
 9     Fc1cccc(Nc2nc(-c3cccnc3)nc3ccccc23)c1  ABCG2 (Homo sapiens, UniProt Q9UNQ0)  80 to 110%
10  CN(C)c1cccc(Nc2nc(-c3cccnc3)nc3ccccc23)c1  ABCG2 (Homo sapiens, UniProt Q9UNQ0)  80 to 110%
11  O=[N+]([O-])c1ccc(Nc2nc(-c3cccnc3)nc3ccccc23)cc1  ABCG2 (Homo sapiens, UniProt Q9UNQ0)  80 to 110%

----------
Listing: Emax of selected molecules
Target: ABCG2 (Homo sapiens)
Assay: Activation of ABCG2 (unknown origin) ATPase activity expressed in baculovirus infected high five cell membranes assessed as protein Vmax by ascorbic acid/ammonia molybdate reaction-based colorimetric analysis relative to basal control
Conditions: read-out: Vmax
endpoint.name: Emax (%)

> print(dat)
                                 smiles.code  numeric.value
 1   N#Cc1ccc(Nc2nc(-c3cccnc3)nc3ccccc23)cc1            137
 2    COc1cccc(Nc2nc(-c3cccnc3)nc3ccccc23)c1            137
 3       COc1cccc(Nc2cc(C)nc(-c3ccncc3)n2)c1            144
 4           Cc1cc(Nc2ccccc2)nc(-c2ccccc2)n1            100
 5  FC(F)(F)c1ccc(Nc2nc(-c3ccncc3)nc3ccccc23)cc1            152
 6      Cc1cc(Nc2cccc(C#N)c2)nc(-c2ccccc2)n1            134
 7  CC(C)(C)OC(=O)c1cccc(Nc2nc(-c3ccncc3)nc3ccccc23)c1             40
 8  O=[N+]([O-])c1cccc(Nc2nc(-c3cccnc3)nc3ccccc23)c1            154
 9     Fc1cccc(Nc2nc(-c3ccccc3)nc3ccccc23)c1            142
10  COc1ccc(Nc2nc(-c3ccccn3)nc3ccccc23)cc1OC            152
11    COc1cccc(Nc2nc(-c3ccncc3)nc3ccccc23)c1            132
12  O=[N+]([O-])c1cc(Nc2nc(-c3ccccc3)nc3ccccc23)ccc1O            135
13    COc1ccc(Nc2nc(-c3ccncc3)nc3ccccc23)cc1            137
14   N#Cc1cccc(Nc2nc(-c3cccnc3)nc3ccccc23)c1            151
15  O=[N+]([O-])c1cc(Nc2nc(-c3cccnc3)nc3ccccc23)ccc1O            151
16     Fc1cccc(Nc2nc(-c3cccnc3)nc3ccccc23)c1            140
17   N#Cc1cccc(Nc2nc(-c3ccccn3)nc3ccccc23)c1            115
18      Cc1cc(Nc2cccc(C#N)c2)nc(-c2ccncc2)n1            133
19   N#Cc1cccc(Nc2nc(-c3ccncc3)nc3ccccc23)c1            178
20   N#Cc1cccc(Nc2nc(-c3ccccc3)nc3ccccc23)c1            145
21  COc1ccc(Nc2nc(-c3ccncc3)nc3ccccc23)cc1OC            150
22  O=[N+]([O-])c1ccc(Nc2nc(-c3cccnc3)nc3ccccc23)cc1            164
23  O=[N+]([O-])c1cccc(Nc2nc(-c3ccccn3)nc3ccccc23)c1            119

Values were extracted from ChEMBL document CHEMBL4014315.
